protocol: Inhibition of Mycobacterium tuberculosis H37Rv His-tagged ptpA expressed in Escherichia coli BL21(DE3) using pNPP as substrate preincubated for 15 mins followed by substrate addition and measured after 15 mins
Listed compounds paired with reported IC50

O=C(O)c1noc(-c2ccccc2)c1-c1cccc(-c2cccc(O)c2)c1 : 95 µM
O=C(O)c1noc(-c2ccccc2)c1-c1cccc(-c2ccc(O)c(F)c2)c1 : 35.3 µM
Cc1cc(-c2cccc(-c3c(C(=O)O)noc3-c3ccccc3)c2)cc(C)c1O : 36 µM
O=C(O)c1noc(-c2ccccc2)c1-c1cccc(-c2cc(Cl)c(O)c(Cl)c2)c1 : 33.7 µM
O=C(O)c1noc(-c2ccccc2)c1-c1cccc(-c2cc(Cl)cc(Cl)c2)c1 : 6.5 µM

Prompt: Query: IC50; subject: "O=C(O)c1noc(-c2ccccc2)c1-c1cccc(-c2cc(Cl)c(O)c([N+](=O)[O-])c2)c1"
Completion: 30.2 µM

Prompt: Request the reported IC50 associated with "O=C(O)c1noc(-c2ccccc2)c1-c1cccc(-c2ccc(O)c(Cl)c2)c1"
Completion: 23.5 µM

Prompt: Bench note: what IC50 did "O=C(O)c1noc(-c2ccccc2)c1-c1cccc(-c2ccc(O)cc2)c1" show?
Completion: 74 µM

---

protocol: Plasma concentration in Hartley Duncan guinea pig at 100 mg/kg, po measured at 2 hrs
Format: ADME, organism-based, Cavia porcellus
observable: concentration at 2 h (ng/mL)
Report only the number, with the unit ng/mL understood.

Prompt: Which concentration at 2 h is listed for "Cc1onc(C(=O)O)c1-c1cccc(-c2cc(Cl)c(O)c(Cl)c2)c1" ?
Completion: 1750

---

protocol: Permeability of the compound at 200 uM after 5 hrs by PAMPA assay
Type: ADME
conditions: read-out: permeability
observable: Papp at 5 h, 200 µM (×10⁻⁶ cm/s)
The reply should be a number in ×10⁻⁶ cm/s, with the unit left off.

Prompt: What measured Papp at 5 h, 200 µM goes with "Cc1onc(C(=O)O)c1-c1cccc(-c2cc(Cl)c(O)c(Cl)c2)c1" ?
Completion: 7.81

---

Let's go through some IC50 measurements on UniProtKB P18031 together.
Sequence (P18031 whole entry): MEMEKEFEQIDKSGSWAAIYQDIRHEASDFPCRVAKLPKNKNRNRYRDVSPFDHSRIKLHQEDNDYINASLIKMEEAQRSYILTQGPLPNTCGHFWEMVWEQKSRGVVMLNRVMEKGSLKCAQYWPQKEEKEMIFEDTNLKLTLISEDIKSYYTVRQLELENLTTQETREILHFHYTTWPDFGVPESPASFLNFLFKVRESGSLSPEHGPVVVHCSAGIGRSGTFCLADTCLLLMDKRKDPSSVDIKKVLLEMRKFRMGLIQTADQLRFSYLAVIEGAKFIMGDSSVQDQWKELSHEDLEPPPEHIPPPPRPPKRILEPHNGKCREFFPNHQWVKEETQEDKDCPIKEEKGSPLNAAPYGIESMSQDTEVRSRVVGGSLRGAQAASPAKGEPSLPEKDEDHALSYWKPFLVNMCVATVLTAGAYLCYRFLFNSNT
State just the number; it will be interpreted in µM.

O=C(O)c1noc(-c2ccccc2)c1-c1cccc(-c2cc(Cl)c(O)c([N+](=O)[O-])c2)c1 : 313

Okay, now this molecule:
Prompt: Give the reported IC50 for "O=C(O)c1noc(-c2ccccc2)c1-c1cccc(-c2cc(Cl)cc(Cl)c2)c1" (system: UniProtKB P18031).
Completion: 48

---

tgt: Phosphotyrosine protein phosphatase (Mycobacterium tuberculosis)
Sequence (A0A045ISB3 whole entry): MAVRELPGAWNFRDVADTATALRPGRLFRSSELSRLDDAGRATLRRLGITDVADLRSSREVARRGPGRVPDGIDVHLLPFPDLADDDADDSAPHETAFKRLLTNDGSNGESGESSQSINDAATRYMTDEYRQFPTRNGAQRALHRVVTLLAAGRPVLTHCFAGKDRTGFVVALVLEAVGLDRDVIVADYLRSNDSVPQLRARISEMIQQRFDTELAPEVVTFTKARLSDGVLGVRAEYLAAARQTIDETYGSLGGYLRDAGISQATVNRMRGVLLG
observable: pIC50
In textbook form, pIC50 equals minus log to base ten of the concentration in mol/L.

Sample records with pIC50:
COc1cccc(-c2c(C(=O)O)noc2-c2ccccc2)c1 : 4.42
COC(=O)c1c(O)cccc1OC/C=C/c1cccc(-c2cc(C(=O)O)no2)c1 [ISOXAZOLECARBOXYLIC ACID] : 5.15
O=C(O)c1noc(-c2ccccc2)c1-c1cccc(-c2ccc(O)c(F)c2)c1 : 5.82
O=C(O)c1noc(-c2ccccc2)c1-c1cccc(O)c1 : 4.07
O=C(O)c1noc(-c2ccccc2)c1-c1cccc(-c2ccc(O)cc2)c1 : 5.55

Prompt: Please report the recorded pIC50 for "O=C(O)c1noc(-c2ccccc2)c1-c1ccccc1" .
Completion: 4.77

Prompt: Give its pIC50 value. Item: "O=C(O)c1noc(-c2ccccc2)c1-c1cccc(-c2ccc(O)c(Cl)c2)c1"
Completion: 6.05
